- System: Salmonella enteritidis (ATCC 15277)
- Assay type: cell-based
- condition-summary: ATCC 15277, 12 h
- Procedure: […] The antimicrobial activity of the peptides prepared in Example 1 was determined against microorganisms by 96-well microdilution minimal inhibitory concentration assay. […]
No end group written: not given here.
assay-endpoint: Minimum Inhibitory Concentration (µg/mL)
Your answer should be a plain number; it is taken to be in µg/mL.

Problem: Please indicate recorded Minimum Inhibitory Concentration of RVVRNWPIGRVVRRVVRRVVR [compound 18] measured with Salmonella enteritidis (ATCC 15277).
Solution: 2

###

Property: Minimum Inhibitory Concentration; scope: individual substances
- Tested on: Saccharomyces cerevisiae (ATCC 44774)
- Type: cell-based
- condition-summary: ATCC 44774, 12 h
No end group written: not given here.
Your answer should be a plain number; it is taken to be in µg/mL.

Previously resolved entries follow.
{"columns": ["substance", "Minimum Inhibitory Concentration (µg/mL)"],
 "data": [
  ["RLVKNWPIGRLVKRLVKRLVK-NH2 [compound 70]", 1],
  ["KLLKKLLKKLLKQWPIGKLLK [compound 38]", 2],
  ["RVLKQWPIGRVLKRVLKRVLK [compound 13]", 2],
  ["KVLRKVLRKVLRQWPIGKVLR-NH2 [compound 71]", 2],
  ["RLLRRLLRRLLRQWPIGRLLR [compound 37]", 2]
]}

Problem: Respond only with Minimum Inhibitory Concentration recorded for RLLRQWPIGRLLRRLLRRLLR [compound 3]
Solution: 2

Problem: Respond only with Minimum Inhibitory Concentration recorded for KLVKKLVKKLVKQWPIGKLVK [compound 42]
Solution: 1

Problem: Respond only with Minimum Inhibitory Concentration recorded for KLLKNWPIGKLLKKLLKKLLK [compound 21]
Solution: 1

Problem: Respond only with Minimum Inhibitory Concentration recorded for KLVRKLVRKLVRQWPIGKLVR [compound 50]
Solution: 2

Problem: Respond only with Minimum Inhibitory Concentration recorded for KLVRQWPIGKLVRKLVRKLVR-NH2 [compound 69]
Solution: 2

Problem: Respond only with Minimum Inhibitory Concentration recorded for KVVRQWPIGKVVRKVVRKVVR [compound 10]
Solution: 2

Problem: Respond only with Minimum Inhibitory Concentration recorded for KVVKKVVKKVVKNWPIGKVVK [compound 53]
Solution: 1

###

Property: Minimum Inhibitory Concentration; scope: individual sequences
- System: Saccharomyces cerevisiae (ATCC 44774)
- Assay type: cell-based
- condition-summary: ATCC 44774, 12 h
No end group written: not given here.
Note: a bare number is incomplete; add the unit.

Previously resolved entries follow.
{"columns": ["seq", "assay-endpoint", "value-reported"],
 "data": [
  ["KVVKNWPIGKVVKKVVKKVVK [compound 19]", "Minimum Inhibitory Concentration", "2 µg/mL"],
  ["KLVRQFPVGKLVRKLVRKLVR [compound 17]", "Minimum Inhibitory Concentration", "1 µg/mL"],
  ["KLVRQWPIGKLVRKLVRKLVR [compound 16]", "Minimum Inhibitory Concentration", "1 µg/mL"],
  ["RVLRRVLRRVLRQWPIGRVLR [compound 39]", "Minimum Inhibitory Concentration", "2 µg/mL"],
  ["KVLRNWPIGKVLRKVLRKVLR [compound 31]", "Minimum Inhibitory Concentration", "2 µg/mL"]
]}

Let's switch to this sequence now.
Problem: Respond only with Minimum Inhibitory Concentration recorded for RVVRQWPIGRVVRRVVRRVVR [compound 1]
Solution: 2 µg/mL

###

- Tested on: Saccharomyces cerevisiae (ATCC 44774)
- Assay type: cell-based
- condition-summary: ATCC 44774, 12 h
No end group written: not given here.
assay-endpoint: Minimum Inhibitory Concentration
Note: a bare number is incomplete; add the unit.

Previously resolved entries follow.
{"columns": ["seq", "value-reported"],
 "data": [
  ["RLLKQWPIGRLLKRLLKRLLK [compound 11]", "2 µg/mL"],
  ["RVVKRVVKRVVKNWPIGRVVK [compound 60]", "1 µg/mL"],
  ["KVLRKVLRKVLRNWPIGKVLR [compound 65]", "1 µg/mL"]
]}

Let's switch to this sequence now.
Problem: Respond only with Minimum Inhibitory Concentration recorded for RLVKNWPIGRLVKRLVKRLVK [compound 32]
Solution: 2 µg/mL

###

- Test system: Salmonella enteritidis (ATCC 15277)
- Type: cell-based
- condition-summary: ATCC 15277, 12 h
- Protocol: […] The antimicrobial activity of the peptides prepared in Example 1 was determined against microorganisms by 96-well microdilution minimal inhibitory concentration assay. […]
No end group written: not given here.
assay-endpoint: Minimum Inhibitory Concentration (µg/mL)
Your answer should be a plain number; it is taken to be in µg/mL.

Previously resolved entries follow.
{"columns": ["substance", "value-reported"],
 "data": [
  ["RLLRQWPIGRLLRRLLRRLLR [compound 3]", 1],
  ["KLVRQWPIGKLVRKLVRKLVR [compound 16]", 1],
  ["RVVRRVVRRVVRQWPIGRVVR [compound 35]", 1]
]}

Problem: Respond only with Minimum Inhibitory Concentration recorded for KVLKNWPIGKVLKKVLKKVLK [compound 23]
Solution: 2

Problem: Respond only with Minimum Inhibitory Concentration recorded for KLVRQFPVGKLVRKLVRKLVR [compound 17]
Solution: 1

Problem: Respond only with Minimum Inhibitory Concentration recorded for KLVRQWPIGKLVRKLVRKLVR-NH2 [compound 69]
Solution: 2

###

- System: Salmonella enteritidis (ATCC 15277)
- Assay type: cell-based
- condition-summary: ATCC 15277, 12 h
No end group written: not given here.
Property: Minimum Inhibitory Concentration; scope: individual sequences
Your answer should be a plain number; it is taken to be in µg/mL.

Previously resolved entries follow.
{"columns": ["seq", "value-reported"],
 "data": [
  ["RLVRRLVRRLVRNWPIGRLVR [compound 58]", 1],
  ["RLVRNWPIGRLVRRLVRRLVR [compound 24]", 2],
  ["KLVRKLVRKLVRNFPVGKLVR [compound 68]", 1],
  ["RVVKRVVKRVVKNWPIGRVVK [compound 60]", 2]
]}

Problem: Respond only with Minimum Inhibitory Concentration recorded for KVVKNWPIGKVVKKVVKKVVK [compound 19]
Solution: 1

Data provenance: patent US7348402B2
